molecular target: Potassium voltage-gated channel subfamily A member 5 (Homo sapiens); test: Inhibition of human Kv1.5 channel expressed in HEK293 cells by whole cell patch clamp technique
Sequence (P22460 whole entry): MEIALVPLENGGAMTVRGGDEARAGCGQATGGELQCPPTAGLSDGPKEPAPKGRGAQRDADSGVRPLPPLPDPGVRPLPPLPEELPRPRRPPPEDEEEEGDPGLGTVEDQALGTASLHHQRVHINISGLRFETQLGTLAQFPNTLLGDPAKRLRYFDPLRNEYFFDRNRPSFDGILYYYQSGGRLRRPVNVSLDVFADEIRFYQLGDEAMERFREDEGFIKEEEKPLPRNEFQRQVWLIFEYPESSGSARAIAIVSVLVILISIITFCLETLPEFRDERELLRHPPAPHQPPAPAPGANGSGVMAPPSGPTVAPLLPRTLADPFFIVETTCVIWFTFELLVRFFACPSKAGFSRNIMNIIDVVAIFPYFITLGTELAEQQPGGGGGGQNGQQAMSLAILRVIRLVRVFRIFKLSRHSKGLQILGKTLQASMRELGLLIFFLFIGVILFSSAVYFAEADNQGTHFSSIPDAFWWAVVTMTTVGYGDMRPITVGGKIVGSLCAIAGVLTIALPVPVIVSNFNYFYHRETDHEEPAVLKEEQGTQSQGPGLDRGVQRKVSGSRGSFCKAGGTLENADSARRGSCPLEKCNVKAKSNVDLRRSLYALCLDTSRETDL
The entries below come with measured IC50 values attached.
parameterMeasured: IC50 (nM)

COC(=O)C(Cc1c[nH]c2ccccc12)NS(=O)(=O)c1ccc(OCC(C)C)cc1 (centres undefined)
3560
COc1ccc2c(c1)c(/C=N/NS(=O)(=O)c1ccc(C)cc1)cn2CC(=O)Nc1ccc(Cl)cc1
510
CCC(=O)Oc1ccc(NC(=O)Cn2cc(/C=N/NS(=O)(=O)c3ccc(C)cc3)c3ccccc32)cc1
2140
CCCCOc1ccc(S(=O)(=O)NC(Cc2c[nH]c3ccccc23)C(=O)OC)cc1 (centres undefined)
8370

Measured values drawn from ChEMBL document CHEMBL2440084 for this set.
